- test_target: IRAK4 (Homo sapiens (Human))
- experiment_summary: IRAK4 MSD degradation in OCI-LY10
- Assay type: cell-based
- settings: OCI-LY10, 4 hrs, MSD; read-out: IRAK4 MSD degradation in OCI-LY10 at 4 hrs: Average external-Abs DC50
reported_metric: DC50

compound | reported_metric | assay_result
Cc1ncsc1-c1ccc(CNC(=O)[C@@H]2C[C@@H](O)CN2C(=O)[C@@H](NC(=O)COCCOCCOCC(=O)N2CCN([C@H]3CC[C@H](Nc4ncnc5cc(CC#N)ccc45)CC3)CC2)C(C)(C)C)cc1 | DC50 | > 1000 nM
CN(CCCOCCCNc1cccc2c1C(=O)N(C1CCC(=O)NC1=O)C2=O)C[C@H]1CC[C@H](n2cc(NC(=O)c3coc(-c4ccnc(N5CCOCC5)c4)n3)c(C(F)F)n2)CC1 (some centres unmarked) | DC50 | 100 to 1000 nM
Cn1c(=O)n(C2CCC(=O)NC2=O)c2ccc(CN3CCN(C[C@H]4CC[C@H](n5cc(NC(=O)c6coc(-c7ccnc(NCC8CC8)c7)n6)c(C(F)F)n5)CC4)CC3)cc21 (some centres unmarked) | DC50 | < 10 nM
CN(CC1CCN(Cc2ccc3c(c2)n(C)c(=O)n3C2CCC(=O)NC2=O)CC1)C[C@H]1CC[C@H](n2cc(NC(=O)c3coc(-c4ccnc(NCC5CC5)c4)n3)c(C(F)F)n2)CC1 (some centres unmarked) | DC50 | < 10 nM
Cn1c(=O)n(C2CCC(=O)NC2=O)c2cccc(CN3CCC(CCCN4CCC(n5cc(NC(=O)c6coc(-c7ccnc(NCC8CC8)c7)n6)c(C(F)F)n5)CC4)CC3)c21 (centres unmarked) | DC50 | 10 to 100 nM

###

# DC50 per record follows
- test_target: IRAK4 (Homo sapiens (Human), UniProt Q9NWZ3)
- Sequence (Q9NWZ3 whole entry): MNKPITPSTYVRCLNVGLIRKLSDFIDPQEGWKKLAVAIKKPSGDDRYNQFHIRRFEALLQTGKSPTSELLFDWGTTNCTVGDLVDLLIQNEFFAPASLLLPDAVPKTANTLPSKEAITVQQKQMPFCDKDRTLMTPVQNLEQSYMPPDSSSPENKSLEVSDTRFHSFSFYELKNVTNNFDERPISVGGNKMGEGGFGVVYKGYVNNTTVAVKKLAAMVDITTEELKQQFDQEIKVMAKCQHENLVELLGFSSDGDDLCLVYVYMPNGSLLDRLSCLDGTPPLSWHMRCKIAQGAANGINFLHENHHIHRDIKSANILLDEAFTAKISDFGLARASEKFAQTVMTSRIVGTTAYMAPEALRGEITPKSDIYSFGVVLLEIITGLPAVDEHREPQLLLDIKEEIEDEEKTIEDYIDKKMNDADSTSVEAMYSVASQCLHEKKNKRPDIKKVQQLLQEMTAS
- experiment_summary: IRAK4 MSD degradation in OCI-LY10
- Format: cell-based
- settings: OCI-LY10, 4 hrs, MSD; read-out: IRAK4 MSD degradation in OCI-LY10 at 4 hrs: Average external-Abs DC50
reported_metric: DC50

compound | assay_result
Cn1c(=O)n(C2CCC(=O)NC2=O)c2cccc(CCCO[C@@H]3CCN(C[C@H]4CC[C@H](n5cc(NC(=O)c6coc(-c7ccnc(NCC8CC8)c7)n6)c(C(F)F)n5)CC4)C3)c21 (some centres unmarked) [I-73] | < 10 nM
Cn1c(=O)n(C2CCC(=O)NC2=O)c2cccc(CCCO[C@H]3CC[C@H](CN4CCC(n5cc(NC(=O)c6cnn7ccc(N8CCOCC8)nc67)c(C(F)F)n5)CC4)CC3)c21 (some centres unmarked) [I-200] | < 10 nM
CN(C[C@H]1CC[C@H](n2cc(NC(=O)c3coc(-c4ccnc(NCC5CC5)c4)n3)c(C(F)F)n2)CC1)C1CCN(Cc2ccnc3c2c2ccccc2n3C2CCC(=O)NC2=O)CC1 (some centres unmarked) [I-241] | 10 to 100 nM
Cn1c(=O)n(C2CCC(=O)NC2=O)c2ccc(CCCCOCCCCNCC(=O)N3CCN([C@H]4CC[C@H](Nc5ncnc6[nH]cc(C7CCOCC7)c56)CC4)CC3)cc21 (some centres unmarked) [I-23] | 10 to 100 nM
Cn1c(=O)n([C@H]2CCC(=O)NC2=O)c2cccc(CCCOC3CCN(CC4CCC(n5cc(NC(=O)c6cnn7ccc(N8CCOCC8)nc67)c(C(F)F)n5)CC4)CC3)c21 (some centres unmarked) [I-257] | < 10 nM
CN(C[C@@H]1CN(CCCc2ccc3c(c2)n(C)c(=O)n3C2CCC(=O)NC2=O)CCO1)C[C@H]1CC[C@H](n2cc(NC(=O)c3coc(-c4ccnc(NCC5CC5)c4)n3)c(C(C)(C)O)n2)CC1 (some centres unmarked) [I-33] | < 10 nM
CC[C@@H]1[C@H](F)C(=O)N[C@@H]1COc1ncc(C#C[C@H]2CC[C@H](CN)CC2)c2cc(C(N)=O)c(OC)cc12 [I-314] | > 1000 nM
CN(C[C@H]1CC[C@H](n2cc(NC(=O)c3coc(-c4ccnc(NCC5CC5)c4)n3)c(C(F)F)n2)CC1)C1CCN(Cc2cccc3c2n(C)c(=O)n3[C@@H]2CCC(=O)NC2=O)CC1 [I-309] | 10 to 100 nM
Cc1ncsc1-c1ccc(CNC(=O)[C@@H]2C[C@@H](O)CN2C(=O)[C@@H](NC(=O)COCCOCCOCCOCC(=O)N2CCN(C3CCC(Nc4ncnc5cc(CC#N)ccc45)CC3)CC2)C(C)(C)C)cc1 (some centres unmarked) [I-49] | > 1000 nM
Cn1c(=O)n(C2CCC(=O)NC2=O)c2ccc(CCCOC3CCN(C[C@H]4CC[C@H](n5cc(NC(=O)c6cnn7ccc(N8CCNCC8)nc67)c(C(F)F)n5)CC4)CC3)cc21 (some centres unmarked) [I-162] | < 10 nM
Cn1c(=O)n(C2CCC(=O)NC2=O)c2ccc(CCCOC3CCN(C[C@H]4CC[C@H](n5cc(NC(=O)c6cnn7ccc(N8CCOCC8)nc67)c(C(F)F)n5)CC4)CC3)cc21 (some centres unmarked) [I-176] | 10 to 100 nM
